# System tested: human CB2 receptor (Homo sapiens (Human), UniProt P34972)
# Sequence (P34972 whole entry): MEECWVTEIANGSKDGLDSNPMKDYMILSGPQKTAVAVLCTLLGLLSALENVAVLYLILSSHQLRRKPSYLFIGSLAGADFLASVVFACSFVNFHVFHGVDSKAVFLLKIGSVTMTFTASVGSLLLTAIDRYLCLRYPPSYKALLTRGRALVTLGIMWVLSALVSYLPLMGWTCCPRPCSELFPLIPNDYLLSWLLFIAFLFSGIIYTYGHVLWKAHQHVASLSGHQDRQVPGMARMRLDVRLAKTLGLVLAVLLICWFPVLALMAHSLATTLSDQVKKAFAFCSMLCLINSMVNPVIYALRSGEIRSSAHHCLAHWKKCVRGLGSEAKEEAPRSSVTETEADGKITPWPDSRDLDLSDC
# Assay details: cAMP assay, CHO cells expressing human CB2 receptors
# Assay type: cell-based
# Condition context: functional cAMP assay, CHO cells expressing human CB2; read-out: human CB2 EC50
pEC50: −log10 of the molar value.
Recorded measurements of pEC50, one per entry

Smiles representation	System tested	pEC50
CC(C)(C)COc1nc(N2CCC(F)(F)C2)c2cnn(Cc3ccccc3C(F)(F)F)c2n1	human CB2 receptor (Homo sapiens (Human), UniProt P34972)	7.80
CC(C)(C)c1nc(N2CCC[C@@H]2CO)c2cnn(Cc3ccccc3C(F)(F)F)c2n1	human CB2 receptor (Homo sapiens (Human), UniProt P34972)	8.30
COC[C@H]1CCCN1c1nc(C(C)(C)C)nc2c1cnn2Cc1ccccc1C(F)(F)F	human CB2 receptor (Homo sapiens (Human), UniProt P34972)	7.88
Cc1nonc1Cn1ncc2c(N3CCC(F)(F)C3)nc(C3CC3)cc21	human CB2 receptor (Homo sapiens (Human), UniProt P34972)	7.37
